Assay: pharmacokinetic pilot, continuous infusion in one animal
Format: in vivo, pig
Conditions: pig, whole blood, intravenous, 0.1 mg/kg/h, time 0 minutes, read-out: Conc in blood 950
assayMetric: concentration at 0 min (ng/mL)

> print(dat)
                               samplesmiles             assaymetric  measurednumber
1  CCOCCOCCOCCCCCNC(=O)NC12CC3CC(CC(C3)C1)C2  concentration at 0 min              11

* * *

Assay: pharmacokinetic pilot, continuous infusion in one animal
Format: in vivo, pig
Details: pig, whole blood, intravenous, infusion 0.1 mg/kg/h, reached at 120 min, read-out: steady state blood concentration
Experimental: One animal served as a pharmacokinetic pilot, with arterial and venous catheters placed in a cut-down in the neck. The remaining 21 animals were used for the randomized study (Figure 1). After intubation and start of mechanical ventilation, a second auricular vein cannula was placed and infusion of either AEPU or placebo according to randomization was started. After 2 h of infusion of AEPU or placebo, an infusion of LPS was started. […]
assayMetric: concentration at 120 min

> print(dat)
                               samplesmiles               assaymetric   result
1  CCOCCOCCOCCCCCNC(=O)NC12CC3CC(CC(C3)C1)C2  concentration at 120 min  ~200 nM

* * *

Test: pharmacokinetic pilot, continuous infusion in one animal
Format: in vivo, pig
Settings: pig, whole blood, intravenous, 0.1 mg/kg/h, time 185 minutes, read-out: Conc in blood 950
assayMetric: concentration at 185 min

> print(dat)
                                   compound               assaymetric     result
1  CCOCCOCCOCCCCCNC(=O)NC12CC3CC(CC(C3)C1)C2 [Compound 950]  concentration at 185 min  202 ng/mL

* * *

Assay: pharmacokinetic pilot, continuous infusion in one animal
Format: in vivo, pig
Conditions: pig, whole blood, intravenous, 0.1 mg/kg/h, time 270 minutes, read-out: Conc in blood 950
assayMetric: concentration at 270 min (ng/mL)

> print(dat)
                                   compound  resultunits  measurednumber
1  CCOCCOCCOCCCCCNC(=O)NC12CC3CC(CC(C3)C1)C2 [Compound 950]        ng/mL           0.189

* * *

Experiment: pharmacokinetic pilot, continuous infusion in one animal
Assay type: in vivo, pig
Conditions: pig, whole blood, intravenous, 0.1 mg/kg/h, time 300 minutes, read-out: Conc in blood 950
assayMetric: concentration at 300 min (ng/mL)

> print(dat)
                               samplesmiles               assaymetric  resultunits  measurednumber
1  CCOCCOCCOCCCCCNC(=O)NC12CC3CC(CC(C3)C1)C2  concentration at 300 min        ng/mL           0.189

* * *

Experiment: pharmacokinetic pilot, continuous infusion in one animal
Type: in vivo, pig
Settings: pig, whole blood, intravenous, 0.1 mg/kg/h, time 330 minutes, read-out: Conc in blood 950
assayMetric: concentration at 330 min

> print(dat)
                                   compound       result
1  CCOCCOCCOCCCCCNC(=O)NC12CC3CC(CC(C3)C1)C2 [Compound 950]  0.189 ng/mL
